# System: IGROV-1
# Assay Text: NCI tumour cell line growth inhibition, 48 h
Activity calls are given as the source filed them. Cut-off read from the data, not from the text of the source: active = GI50 up to about 1.1 µM and inactive = higher.
Mark one answer only. Choices: y for active, n for inactive

Which result was noted for this compound in the test: N#C/C(=C\c1ccc(Br)cc1)c1nc(-c2cc3ccccc3oc2=O)cs1
n

Which result was noted for this compound in the test: COC(=O)C1=C(C)NC2(C)OC(C)(O)C(C(C)=O)C12C(C)=O (centres undefined)
n

###

Recorded GI50, one value per entry.
# Tested on: SW-620
# Assay Text: NCI tumour cell line growth inhibition, 48 h
Activity calls are given as the source filed them. Rule as the data show it: active = GI50 up to about 1.1 µM and inactive = higher.

See these solved cases before continuing.
- Clc1ccc(/C=C/c2csnn2)cc1: > 100 µM (inactive)
- CN1C[C@H]2[C@@H](C1=O)[C@H](c1ccccc1)ON2C: > 100 µM (inactive)
- N#CC1C(=O)Nc2sc(C(=O)c3ccc(Br)cc3)c(N)c2C12CCCCC2 (stereo not given): 16.6 µM (inactive)
- CC(=O)Oc1ccc2c3c1[C@@H]1O[C@@H]1c1cccc(c1-3)[C@@H]1O[C@H]21: 1.14 µM (inactive)
- COC(=O)C(CC=O)C(=O)C(=O)Nc1cccc(C(F)(F)F)c1 (stereo not given): > 100 µM (inactive)

Which GI50 is reported for this molecule? CC(C)=CC(=O)O[C@@H]1CC(C)(C)CC2C3=CCC4[C@]56CC[C@](O)(OC5)C(C)(C)C6CC[C@@]4(C)C3(C)CC[C@]21C(=O)O (stereo not given in full)
> 100 µM (inactive)

Which GI50 is reported for this molecule? C/C(=N\NC(N)=S)c1cccs1.OB(O)c1ccccc1
> 100 µM (inactive)

Which GI50 is reported for this molecule? CCOc1cc(C2CC(c3ccc(NS(=O)(=O)c4cc([N+](=O)[O-])ccc4C)cc3)=NN2S(=O)(=O)c2cc([N+](=O)[O-])ccc2C)ccc1O (stereo not given)
64.7 µM (inactive)

###

# Test system: PC-3
# Assay Text: NCI tumour cell line growth inhibition, 48 h
Calls of active or inactive are those of the source. No stated cut-off is given here; in the data, active = GI50 up to about 1.1 µM and inactive = higher.
Recorded GI50, one value per entry.

Which GI50 is reported for this compound? COC1(c2cccs2)c2ccccc2C(OC)(c2cccs2)c2ccccc21 (stereo not drawn)
42.9 µM (inactive)

Which GI50 is reported for this compound? CN1CCN(c2ccc3nc(C4=C(O)C(=O)c5c(nc(CCl)n5C)C4=O)[nH]c3n2)CC1
16.9 µM (inactive)

Which GI50 is reported for this compound? CC(NNC(=O)c1cc[n+]([BH2-]C#N)cc1)c1ccc(F)cc1 (stereo not drawn)
> 100 µM (inactive)

###

Recorded GI50, one value per entry.
# System: SK-MEL-5
# Assay Text: NCI tumour cell line growth inhibition, 48 h
The source made the active and inactive calls. No stated cut-off is given here; in the data, active = GI50 up to about 1.1 µM and inactive = higher.

* COc1ccc(O)c2c(=O)ccccc12 | > 100 µM (inactive)
* O=C(Nc1ccccc1)OCCN=C1c2ccccc2CCc2ccccc21 | 13.4 µM (inactive)
* CC(=O)Oc1ccc2c3c1[C@@H]1O[C@@H]1c1cccc(c1-3)[C@@H]1O[C@H]21 | 1.61 µM (inactive)

Which GI50 is reported for this compound? N#CC1(C#N)C(c2ccccc2)C=CC12OCCCO2 (stereo unspecified)
53.8 µM (inactive)

Which GI50 is reported for this compound? OC1CCC(C2C3CCCCC3C3CCCCC3C2C2CCC(O)CC2)CC1 (stereo unspecified)
10.4 µM (inactive)

Which GI50 is reported for this compound? CC(C(=O)[O-])S(=O)(=O)O.CCc1c2cc(OC)c(OC)cc2cc2c3cc(OC)c(OC)cc3cc[n+]12
15.3 µM (inactive)

Which GI50 is reported for this compound? CSc1nc2c(c(=O)[nH]1)N=C(c1ccc([N+](=O)[O-])cc1)CC(c1ccccc1)N2 (stereo unspecified)
20.9 µM (inactive)

Which GI50 is reported for this compound? c1ccc(CCCN2C3CCC2CN(CCOC(c2ccccc2)c2ccccc2)C3)cc1
3.3 µM (inactive)

Which GI50 is reported for this compound? O=C(Nc1nc2ccc([N+](=O)[O-])cc2s1)C(=O)C(C1OC(=O)c2ccccc21)[N+](=O)[O-] (stereo unspecified)
64.6 µM (inactive)

Which GI50 is reported for this compound? Cc1nnc2sc(N/N=C/c3ccccc3)nn12
> 100 µM (inactive)

Which GI50 is reported for this compound? CC(NNC(=O)c1cc[n+]([BH2-]C#N)cc1)c1ccc(F)cc1 (stereo unspecified)
> 100 µM (inactive)

Source of measurements: ChEMBL document CHEMBL1201862
